- System Under Test: Histone-arginine methyltransferase CARM1 (Mus musculus)
- Sequence (Q9WVG6 whole entry): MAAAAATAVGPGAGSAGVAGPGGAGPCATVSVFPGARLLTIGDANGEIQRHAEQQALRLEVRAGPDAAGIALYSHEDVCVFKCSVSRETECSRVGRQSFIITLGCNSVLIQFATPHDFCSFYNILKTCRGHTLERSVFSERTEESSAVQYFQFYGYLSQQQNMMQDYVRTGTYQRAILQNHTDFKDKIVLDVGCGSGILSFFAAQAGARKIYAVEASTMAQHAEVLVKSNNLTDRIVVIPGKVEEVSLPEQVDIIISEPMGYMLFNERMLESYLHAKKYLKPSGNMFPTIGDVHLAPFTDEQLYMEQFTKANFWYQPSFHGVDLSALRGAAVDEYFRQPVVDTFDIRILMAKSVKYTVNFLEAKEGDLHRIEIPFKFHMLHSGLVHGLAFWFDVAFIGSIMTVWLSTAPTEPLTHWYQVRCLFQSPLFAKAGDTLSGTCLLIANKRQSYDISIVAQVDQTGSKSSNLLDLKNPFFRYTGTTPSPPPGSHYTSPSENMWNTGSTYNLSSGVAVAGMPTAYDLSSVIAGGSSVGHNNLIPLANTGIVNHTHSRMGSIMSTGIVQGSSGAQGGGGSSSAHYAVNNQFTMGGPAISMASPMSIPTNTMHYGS
- Assay Procedure: Inhibition of mouse recombinant his-tagged CARM1 expressed in Sf9 cells by histone methyltransferase assay
pIC50: −log10 of the molar value.
pIC50 for assorted molecules
Readout Kind: pIC50

INSERT INTO measurements (smiles_notation, modifier, measured) VALUES
  ('COc1ccccc1CNC(=O)c1cc(C(F)(F)F)nn1-c1cccc2cc(CNC(=O)[C@H](C)N)oc12', '<', 5.00),
  ('COc1ccccc1CNC(=O)c1cc(C(F)(F)F)nn1-c1cccc2c1CN(CNC(=O)[C@H](C)N)C2', '<', 5.00),
  ('COc1cccc(CNC(=O)c2cc(C(F)(F)F)nn2-c2csc(CNC(=O)[C@H](C)N)c2)c1', '=', 6.43),
  ('COc1ccccc1CNC(=O)c1cc(C(F)(F)F)nn1-c1cccc(CNC(=O)[C@H](C)N)n1', '=', 5.52),
  ('C[C@H](N)C(=O)NCc1cc(-n2nc(C(F)(F)F)cc2C(=O)NCc2ccccc2)cs1', '=', 6.66),
  ('COc1ccccc1CNC(=O)c1cc(C(F)(F)F)nn1-c1cc(CNC(=O)[C@H](C)N)ccn1', '=', 5.38),
  ('C[C@H](N)C(=O)NCc1cc(-n2nc(C(F)(F)F)cc2C(=O)NCc2ccccc2F)cs1', '=', 6.10),
  ('C[C@H](N)C(=O)NCc1ccc(-n2nc(C(F)(F)F)cc2C(=O)NCc2ccccn2)s1', '=', 5.47),
  ('C[C@H](N)C(=O)NCc1ccc(-n2nc(C(F)(F)F)cc2C(=O)NCc2ccccc2)s1', '=', 6.64);

Origin of values: ChEMBL document CHEMBL1136843
